Tested on: A549 cells
RUN CONDITIONS: 10 µM
Under this convention, TRUE denotes Cell Viability strictly below 80% and FALSE denotes Cell Viability at or above 80%.

MOLECULE	CAT
CN(C)Cc1ccc(-c2cc3cc(Br)ccc3nc2Oc2ccccc2)cc1	FALSE
CN(C)Cc1ccc(-c2cc3cc(Br)ccc3nc2OCc2ccccc2)cc1	FALSE
CCN(CC)CCc1ccc(-c2cc3cc(Br)ccc3nc2OCc2cccc3ccccc23)cc1	FALSE
CN(C)Cc1ccc(-c2cc3cc(Br)ccc3nc2OCc2ccncc2)cc1	TRUE
CN(C)CCOc1nc2ccc(Br)cc2cc1-c1ccc(CN(C)C)cc1	TRUE

Does the reported Cell Viability of the following molecule sit strictly below 80%? "CN(C)Cc1ccc(-c2cc3cc(Br)ccc3nc2OCc2cccc3ccccc23)c(F)c1"
FALSE

Now try "COc1ccc2nc(OCc3cccc4ccccc34)c(-c3cccc(CN(C)C)c3)cc2c1" .
FALSE

Now try COc1nc2ccccc2cc1C(Nc1ccccc1N1CCN(C)C1=O)c1ccccc1 (stereo not drawn) .
FALSE

Now try "CN(C)c1ncc2cc(-c3cc4cc(Br)ccc4nc3OCc3cccc4ccccc34)ccc2n1" .
FALSE

Data provenance is paper PMC6315506.
